These data points were gathered from patent US20260217797A1.

PsV Neut Assay IC50 values for the binders below.
target: SARS-CoV-2 wild type spike protein (on reporter virus particles) (SARS-CoV-2, UniProt P0DTC2 14-1273); assay: cell-based or functional assay
Give the value, in units of nM, as a plain number.

[
  {
    "Binder": "A-8 (antibody, V domains shown) VH: EVQLLESGGGLVQPGGSLRLSCAASGFTFSSYAMSWVRQAPGKGLEWVSAISGSGNSTSYADSVKGRFTLSRDNSKNTLYLQMNSLRAEDTAIYYCAKGLGTRSFNWGAFDYWGQGTLVTVSS VL: DIRVTQSPSSLSASVGDRVTITCRASQGISYSLAWYQQKPGKAPKLLLYAASNLESGVPSRFSGSGSGTDYTLTVSSLQPEDFATYYCQQYYSTPWTFGQGTKVEIK",
    "Measurement kind": "PsV Neut Assay IC50",
    "Recorded result": 0.846
  }
]

Okay, next one:
Using the record for A-14 (antibody, V domains shown) VH: EVQLVESGGGVVQPGRSLRLSCAASGFTFSTYGMHWVRQAPGKGLEWVAVIWYDGSNKYYADSVKGRFTISRDNSKNTLYLQMNSLRAEDTAVYYCARSVDGDYLEYFQHWGQGTLVTVSS VL: QPVLTQPRSVSGSPGQSVTISCTGTSSDVGGYNYVSWYQQHPGKAPKLMIYDVSKRPSGVPDRFSGSKSGNTASLTISGLQAEDEADYYCCSYAGGYTNYVFGTGTKLTVL , state its measured PsV Neut Assay IC50.
1.61
